# Test system: TRKC
# Construct: gene NTRK3
# PROTOCOL CONDITIONS: concentration: 1 μM, replicates: in singlicate; n = 1;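 note: KINOMEscan kinase panel screen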
ENDPOINT LABEL: %Inh (%)
State just the number; it will be interpreted in %.

Field: %Inh (TRKC). Entry: O=C(Nc1n[nH]c2nc(-c3nccs3)c(Br)cc12)C1CCCC1 [SB-742609]
24

Tell me reported %Inh for Cc1cccc(-c2nc(-c3ccc(S(C)(=O)=O)cc3)sc2-c2ccnc(NCCc3ccccc3)c2)c1 , tested with TRKC.
15

Give recorded %Inh with TRKC for the following compound: Cl.Oc1ccc(-c2nc(-c3ccccc3)[nH]c2-c2ccncc2)cc1 [SB-428218]
64

Form field - read-out: %Inh; system: TRKC; submitted item: CN1C(=O)C(Nc2ccc(Cl)c(C(=O)O)c2)=C(c2ccc(Cl)cc2)C1=O [SB-404290]
22

Hello, I am looking for reported %Inh with TRKC for Cc1ccc(NC(=O)Nc2cc(C(C)(C)C)nn2-c2ccccc2)cc1 [GSK1014915] . Could you help?
26

Recorded %Inh for COc1cc2nccc(Nc3ccc(NC(=O)c4ccc(C)cc4)c(O)c3)c2cc1OC.Cl [GW440132] with TRKC, please?
0

Find the measured %Inh: item O=C(O)COc1ncnc2cc(-c3ccc4[nH]ncc4c3)sc12 , target or system TRKC.
0

Record CS(=O)(=O)c1ccc(-c2c(-c3ncn[nH]3)sc(N3CCOCC3)c2C#N)cc1 : what is its %Inh with TRKC?
0

# query: %Inh | item Clc1cc(Cl)cc(Nc2ccnc(Nc3cc(Cl)cc(Cl)c3)n2)c1 [GSK175726] | system: TRKC
0

Query %Inh on TRKC for Cc1c(O)cccc1Nc1ccnc2ccc(C(F)(F)F)cc12.Cl [GW466413]
31

Lookup: %Inh / TRKC / Cc1csc(-c2nc(Nc3ccncc3)c3ccccc3n2)n1 [GW869640]
22

Requested read-out %Inh, target or system TRKC, entry Cc1cccc(-c2nc(C)cc(Nc3ccncc3)n2)n1 [GSK257997]
0

Request - read-out %Inh | tested on TRKC | compound COC(=O)c1c(-c2ccccc2)c2cc(OC)ccc2c(=O)n1Cc1ccccc1
0

Requested read-out %Inh, target or system TRKC, entry C[C@@H]1CCCCN1c1cc(-c2ccc3c(N)n[nH]c3c2)nc(N)n1 [GSK2258759]
0

Find %Inh (TRKC) for the entry Fc1cccc(COc2nnc(-c3ccc4c(c3)CCO4)o2)c1
48

Form field: %Inh recorded for Cc1ccc(-c2cc(-c3c[nH]nc3-c3ccccn3)ccn2)cc1 [GW684088] with TRKC (enter value)
40

Which measured %Inh belongs to COc1cccc(NC(=O)NC2CCN(c3ccnc(Nc4ccc(F)cc4)n3)C2)c1 (stereo not shown) [GSK1379721] , tested on TRKC?
80

Field: %Inh (TRKC). Entry: COc1ccc2nc(-c3cccc(C)n3)nc(Nc3ccncc3)c2c1 [GSK204919]
0

Given the entry Nc1nc(-c2nccs2)c(-c2ccnc3ccccc23)s1 [GW693542] , what %Inh was observed with TRKC?
23

* * *

# System: DCAMKL3
# Construct: gene DCLK3
# PROTOCOL CONDITIONS: concentration: 1 μM, replicates: in singlicate; n = 1
Give measured %Inh for each item. Keep answers brief.
Form entry: value (%) — number only.

Would you kindly share the measured %Inh for Cc1ccc(C(=O)Nc2ccc(Nc3ccnc4cc(-c5ccccn5)ccc34)cc2O)cc1.Cl [GW440146] ?
16

Form field: reported %Inh of COc1cc2ncn(-c3cc(OCC4CCCO4)c(C(N)=O)s3)c2cc1OC (stereo not shown) [GSK204607]
0

Any idea what its %Inh is? The compound is COc1ccccc1-c1ccc2c(NC(=O)C3CC3)n[nH]c2n1 [SB-711239]
0

# get_value(readout='%Inh', item= O=C(O)COc1ncnc2cc(-c3ccc4[nH]ncc4c3)sc12 )
8

Report %Inh for Cl.Oc1ccc(-c2nc(-c3ccccc3)[nH]c2-c2ccncc2)cc1 [SB-428218] please.
7

Entry Cc1ccc(NC(=O)Nc2cc(C(C)(C)C)nn2-c2ccccc2)cc1 [GSK1014915] : reported %Inh = ?
5

Look at this compound and give its reported %Inh. Fc1cc(Cl)ccc1Nc1ccnc2cc(-c3ccc(CN4CCCCC4)o3)ccc12 [GW560116]
0

Recorded %Inh for COc1cccc(NC(=O)NC2CCN(c3ccnc(Nc4ccc(F)cc4)n3)C2)c1 (stereo not shown) [GSK1379721] , please?
0

Sample Cc1csc(-c2nc(Nc3ccncc3)c3ccccc3n2)n1 [GW869640] — what was its %Inh?
30

Give the measured %Inh of CS(=O)(=O)c1ccc(-c2c(-c3ncn[nH]3)sc(N3CCOCC3)c2C#N)cc1 .
19
